Biological target: Phosphoglycerate kinase 1 (Homo sapiens, UniProt P00558)
Sequence (P00558 whole entry): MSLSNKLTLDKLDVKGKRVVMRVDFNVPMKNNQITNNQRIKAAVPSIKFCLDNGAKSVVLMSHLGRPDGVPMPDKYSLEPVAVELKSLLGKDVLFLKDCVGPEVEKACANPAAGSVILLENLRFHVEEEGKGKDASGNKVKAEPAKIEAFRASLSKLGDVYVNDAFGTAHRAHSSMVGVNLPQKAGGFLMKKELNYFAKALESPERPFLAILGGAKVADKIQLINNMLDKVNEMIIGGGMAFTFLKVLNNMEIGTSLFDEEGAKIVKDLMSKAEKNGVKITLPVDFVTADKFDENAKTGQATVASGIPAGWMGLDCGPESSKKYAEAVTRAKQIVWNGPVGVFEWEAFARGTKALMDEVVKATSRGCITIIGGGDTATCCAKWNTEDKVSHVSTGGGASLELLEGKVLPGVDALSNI
pIC50: −log10 of the molar value.
attribute.measured: pIC50

Past entries and their recorded results:
1. CCNc1nc2cc(Cl)c(OC)cc2nc1NCC
8.05
2. CCNc1nc2cc(OC)c(Cl)cc2nc1-c1ccc2c(c1)OCO2
5.64
3. CCNc1nc2cc(OC)c(Cl)cc2nc1NCCCN1CCCC1
6.60
4. CCNc1nc2cc(Cl)c(C#CC(=O)OC)cc2nc1NCC
6.20

(A) CCNc1nc2cc(OC)c(OC)cc2nc1NCCc1ccccn1
(B) CCNc1nc2cc(OC)c(Cl)cc2nc1-c1ccc(Cl)cc1
Exam item: Which has the higher pIC50, A or B ? Select an item and report its label.
Marked response: A
(A: 6.08, B: 5.72)

(P) CCNc1nc2cc(OC)c(Cl)cc2nc1-c1cccc(C(=O)NCc2ccco2)c1
(Q) CCNc1nc2cc(C#CCCO)c(Cl)cc2nc1C#CCCO
Exam item: Quick check, higher pIC50 between P and Q ? Which one? Tell me its label.
Marked response: P
(P: 6.68, Q: 6.18)

(1) CCNc1nc2cc(OC)c(Cl)cc2nc1-c1cccs1
(2) CCNc1nc2cc(OC)c(Cl)cc2nc1-c1cnn(C)c1
Exam item: Name the one with the greater pIC50 value, either 1 or 2 as given. Answer by stating the label of the chosen item.
Marked response: 2
(2: 7.18, 1: 6.72)

(a) CCNc1nc2cc(Cl)c(C#CC(C)O)cc2nc1NCC (configuration not stated)
(b) CCC#Cc1cc2nc(NCC)c(NCC)nc2cc1Cl
Exam item: # return whichever of a and b has the smaller pIC50 Identify your selection by its label.
Marked response: b
(b: 6.57, a: 6.90)
